Origin of the recorded values: patent US10005779B2

# test-target: HCV genotype 1b NS5B polymerase containing the S282T mutation (Hepatitis C virus genotype 1b, UniProt Q9WMX2, S2701T)
# Construct: recombinant HCV polymerases (with a deletion of the 21 carboxy terminal amino acids)
# Sequence (Q9WMX2 2420-2989 S2701T): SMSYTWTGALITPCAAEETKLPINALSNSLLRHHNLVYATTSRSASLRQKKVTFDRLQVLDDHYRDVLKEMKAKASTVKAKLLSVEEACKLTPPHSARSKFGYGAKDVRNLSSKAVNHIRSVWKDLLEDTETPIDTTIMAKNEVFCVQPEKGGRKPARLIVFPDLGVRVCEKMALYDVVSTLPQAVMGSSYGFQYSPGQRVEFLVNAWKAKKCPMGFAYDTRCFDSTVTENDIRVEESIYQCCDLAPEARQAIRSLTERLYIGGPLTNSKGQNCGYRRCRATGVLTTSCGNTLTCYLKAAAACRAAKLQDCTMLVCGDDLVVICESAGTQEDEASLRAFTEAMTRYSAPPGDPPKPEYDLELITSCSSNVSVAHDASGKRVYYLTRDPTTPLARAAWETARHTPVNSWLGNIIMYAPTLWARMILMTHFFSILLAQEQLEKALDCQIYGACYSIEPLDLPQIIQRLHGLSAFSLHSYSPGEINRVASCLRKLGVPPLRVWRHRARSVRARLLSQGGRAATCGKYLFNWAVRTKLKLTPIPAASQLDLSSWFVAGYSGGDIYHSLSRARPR
# protocol-text: HCV polymerase enzyme assay, S282T mutant
IC50 values by entry

Here are 2 molecules together with their reported answers.
{"columns": ["smiles", "IC50"],
 "data": [
  ["O=c1ccn([C@@H]2S[C@H](COP(=O)(O)OP(=O)(O)OP(=O)(O)O)[C@@H](O)[C@H]2O)c(=O)[nH]1", "250 to 1000 nM"],
  ["C[C@@]1(O)[C@H](O)[C@@H](COP(=O)(O)OP(=O)(O)OP(=O)(O)O)S[C@H]1n1ccc(=O)[nH]c1=O", "> 10000 nM"]
]}

Below: the item to evaluate.
[in] What value of measured IC50 is listed for Nc1nc2c(ncn2[C@@H]2S[C@H](COP(=O)(O)OP(=O)(O)OP(=O)(O)O)[C@@H](O)[C@H]2O)c(=O)[nH]1 ?
[out] 1000 to 10000 nM
